Method: Selectivity index, ratio of EC50 for mouse J774.A1 cells to EC50 for Leishmania mexicana intracellular amastigotes
Assay type: toxicity, cell-based
Experimental Context: read-out: Ratio EC50
Exercise: for every item that follows, state its recorded selectivity ratio.
Answers are plain numbers.

Solved entries:
molecule="Cc1noc(C)c1CC(=O)N1CCOc2c(cc(-c3ccc(Cl)cc3)cc2OCC2CCCN(C)C2)C1 (stereo not given)" recorded_measurement=3.4
molecule="Cc1ccc(-c2cc3c(c(OCC4CCCN(C)C4)c2)OCCN(C(=O)Cc2c(C)noc2C)C3)s1 (stereo not given)" recorded_measurement=2
molecule="Cc1noc(C)c1CC(=O)N1CCOc2c(cc(-c3cccc(Cl)c3)cc2OCC2CCCN(C)C2)C1 (stereo not given)" recorded_measurement=3.6

Give selectivity ratio for each of the items listed below.
1. Cc1noc(C)c1CC(=O)N1CCOc2c(cc(-c3ccccc3Cl)cc2OCC2CCCN(C)C2)C1 (stereo not given)
2. Cc1noc(C)c1CC(=O)N1CCOc2c(cc(-c3cccc(F)c3)cc2OCC2CCCN(C)C2)C1 (stereo not given)

1. 5.1
2. 4.4
